# ASSAY TARGET: RSV fusion glycoprotein (RSV-F) (respiratory syncytial virus)
# METHOD: SPR; F protein loaded on streptavidin sensors, mAb in solution
Decision: Kd beneath 0.1 nM gives true; Kd meeting or exceeding 0.1 nM gives false.

{"columns": ["BINDER", "CATEGORY LABEL"],
 "data": [
  ["MPK130 (antibody, V domains shown, VH and VL only) VH: EVQLVESGGGLVKPGGSLTLSCEASGFSISGYYMIWVRQAPGKGLEWVSSISASDTYIDYAVSVQGRFTISRHNTKNSLYLQMSSLRVEDTGVYYCTREKVPSPGPFDCWGQGTLVTVSS VL: QSVLTQPPSVSGAPGQRITISCTGTSSNIGAGYDVHWYQHLPGAAPRLLIYVNTNRPSGVPDRFSGARSGTSASLAITGLQAEDEADYYCQSYDRSLGGWAFGEGTKVTVL", "true"],
  ["MPK10 (antibody, V domains shown, VH and VL only) VH: EVQLVQSGGGLVKPGGSLRLSCAASGFRFSGYFMIWIRQAPGKGLEWISFISGGSSYTNYADSVKGRFTISRDNVQNTLFLDMNSLRAEDTGVYFCATEQVPTPGPFDLWGQGSLVTVSS VL: QSVLTQPPSVSGVPGQRVIISCTGSSSNIGAGYDVHWYQQFPGRSPTLLIYRNTNRPSGVPDRFSGFQSGSSASLAITGLQAEDEADYYCQSFDRTLDGWAFGGGTKVTVL", "true"],
  ["MPK158 (antibody, V domains shown, VH and VL only) VH: EVQLVESGGGLVKPGGSLRLSCAASGFSISGFYMIWIRQAPGKGLEWISDISASSSYIDYADSVKGRFTISRDNGQNTVHLLMNNLRADDTGVYYCAREQTPSPGPFDLWGQGTLVTVST VL: QPVLTQPPSVSGAPGQRVTISCTGRSSNIGAGYDVHWYQHLPGTSPKLLIYRNSNRPSGVPDRFSGSTSGTSASLAITGLQADDEADYYCQAYDRILGGWAFGGGTKLTVL", "true"],
  ["MPK102 (antibody, V domains shown, VH and VL only) VH: EVQLVESGGGLVKPRGSLRLSCAASGFTFSGYFMIWIRQAPGKGLEWVSYISGSSTYTNYADSVKGRFTISRDNGRNTLYLQMNSLRADDTAVYYCATEQTPSPGPFDLWGQGTLVTVSS VL: QSVLTQPPSVSGAPGQRVTISCTGTSSNIGAGYDVHWYQQFPGTSPKLLIFRNTNRPSGVSDRFSGSKSGSSASLAIAGLQAEDESDYYCQSYDRGLDGWVFGGGTRLTVL", "true"],
  ["MPK142-v2 (antibody, V domains shown, VH and VL only) VH: EVQLVESGGGLVEPGGSLRLSCAASGFTISGYGMSWVRQAPGKGLEWVSSISASSSYIYYGDAMKGRITISRDNGWNSMYLQMNSLRTEDTAVYYCATAPIEPPYFDLWGRGTLVTVSS VL: DIQLTQTPTSLSASVGDRVTFTCRASQNIGFYLNWYQQKPGKAPRLLIYGASNLQSGVPSRFSGSGAGTDFSLTISSLQPEDFATYYCQQSFNTPRTFGQGTKVEIN", "false"]
]}

The origin of these recorded values is patent US20260028391A1.
